These measurements were taken from PubChem BioAssay (NCATS).

Target: ATPase family AAA domain-containing protein 5 (Homo sapiens) (UniProt Q96QE3)
Sequence (Q96QE3 whole entry, looked up, the tested form may be a part): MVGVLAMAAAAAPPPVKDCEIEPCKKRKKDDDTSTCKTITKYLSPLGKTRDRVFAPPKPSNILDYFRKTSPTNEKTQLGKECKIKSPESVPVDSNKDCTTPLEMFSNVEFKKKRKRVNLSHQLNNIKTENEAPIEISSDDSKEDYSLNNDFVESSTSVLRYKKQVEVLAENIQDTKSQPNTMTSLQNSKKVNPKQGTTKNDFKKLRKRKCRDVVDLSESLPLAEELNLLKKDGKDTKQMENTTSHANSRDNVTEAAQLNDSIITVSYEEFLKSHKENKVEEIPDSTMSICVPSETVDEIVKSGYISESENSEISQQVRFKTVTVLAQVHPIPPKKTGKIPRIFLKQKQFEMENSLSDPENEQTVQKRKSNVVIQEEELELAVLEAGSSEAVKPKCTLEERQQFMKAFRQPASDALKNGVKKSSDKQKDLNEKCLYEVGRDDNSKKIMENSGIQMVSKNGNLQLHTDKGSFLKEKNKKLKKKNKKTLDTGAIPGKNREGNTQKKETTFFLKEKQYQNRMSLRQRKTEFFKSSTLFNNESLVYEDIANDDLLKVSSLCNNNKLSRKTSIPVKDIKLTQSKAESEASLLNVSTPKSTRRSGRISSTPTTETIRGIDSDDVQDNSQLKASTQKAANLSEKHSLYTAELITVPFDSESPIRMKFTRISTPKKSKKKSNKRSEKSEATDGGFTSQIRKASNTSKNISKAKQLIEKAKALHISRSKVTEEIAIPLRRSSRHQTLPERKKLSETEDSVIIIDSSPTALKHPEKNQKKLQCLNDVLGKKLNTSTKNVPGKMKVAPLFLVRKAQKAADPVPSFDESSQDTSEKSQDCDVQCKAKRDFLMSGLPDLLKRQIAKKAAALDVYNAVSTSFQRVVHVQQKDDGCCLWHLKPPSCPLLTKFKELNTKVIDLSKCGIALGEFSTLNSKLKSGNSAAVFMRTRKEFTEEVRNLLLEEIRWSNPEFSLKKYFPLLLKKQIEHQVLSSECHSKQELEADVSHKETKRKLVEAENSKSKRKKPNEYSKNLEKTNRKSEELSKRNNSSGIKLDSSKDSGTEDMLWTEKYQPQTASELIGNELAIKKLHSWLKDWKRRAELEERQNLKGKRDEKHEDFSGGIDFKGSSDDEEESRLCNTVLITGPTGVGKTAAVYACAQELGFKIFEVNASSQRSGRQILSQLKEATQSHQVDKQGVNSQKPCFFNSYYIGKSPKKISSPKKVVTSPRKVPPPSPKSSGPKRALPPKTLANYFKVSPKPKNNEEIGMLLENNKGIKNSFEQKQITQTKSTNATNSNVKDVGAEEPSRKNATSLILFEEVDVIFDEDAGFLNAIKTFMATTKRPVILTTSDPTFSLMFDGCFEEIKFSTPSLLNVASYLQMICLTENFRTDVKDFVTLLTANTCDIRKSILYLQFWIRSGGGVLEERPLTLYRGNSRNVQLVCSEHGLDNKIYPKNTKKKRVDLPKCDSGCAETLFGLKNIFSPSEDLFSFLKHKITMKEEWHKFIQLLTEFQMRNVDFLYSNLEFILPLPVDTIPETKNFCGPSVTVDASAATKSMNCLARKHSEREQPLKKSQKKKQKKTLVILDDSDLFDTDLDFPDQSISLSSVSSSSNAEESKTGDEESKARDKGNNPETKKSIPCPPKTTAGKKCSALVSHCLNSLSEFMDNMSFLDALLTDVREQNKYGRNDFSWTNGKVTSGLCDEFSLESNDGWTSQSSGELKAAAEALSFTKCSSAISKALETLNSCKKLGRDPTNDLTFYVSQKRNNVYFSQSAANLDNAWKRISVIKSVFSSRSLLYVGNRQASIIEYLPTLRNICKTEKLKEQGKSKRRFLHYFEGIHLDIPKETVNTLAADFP
Assay: Validation screen for small molecules that inhibit ELG1-dependent DNA repair in human embryonic kidney (HEK293T) cells expressing luciferase-tagged ELG1 (AID 493107); further: nearly all actives have a fitted effect of over 70% in size
Settings: HEK293T ELG1-luciferase level, luminescence, 5-fluorouridine co-treatment, 16 h; series mostly up to 46.1 µM
Records with an inconclusive call do not appear. Active and inactive are the calls of the source. The call rests on the fitted dose curve; in most records, active means well fitted inhibition curve with a large enough effect; inconclusive means small, poorly fitted or top-dose-only effect, or effect the other way; inactive means flat fitted curve, though single readings scatter.
Labels: active, inactive

1. NC(=O)c1cc(N2CC2)c([N+](=O)[O-])cc1[N+](=O)[O-] ... inactive
2. C[N+]1(C)CCc2cc3c(cc2[C@H]1[C@@H]1OC(=O)c2c1ccc1c2OCO1)OCO3 ... inactive
3. CCn1cnc2c(Nc3cccc(Cl)c3)nc(N[C@@H]3CCCC[C@@H]3N)nc21 ... active
4. NC(N)=NOCC[C@H](N)C(=O)O ... inactive
5. C[N+](C)(C)CC#CCOC(=O)Nc1cccc(Cl)c1 ... inactive
6. NC(=O)COc1c(F)cc(SCCNS(=O)(=O)c2ccccc2)cc1F ... inactive
7. Cc1c2ccncc2c(C)c2c1[nH]c1ccccc12 ... active
8. O=[N+]([O-])c1ccc2nc(N3CCNCC3)ccc2c1 ... inactive
9. CN(C(=O)Cc1ccc(Cl)c(Cl)c1)C(CN1CCCC1)c1cccc(OCC(=O)O)c1 (stereo unspecified) ... inactive
10. CC(N)Cc1c[nH]c2ccc(OCc3cccs3)cc12 (stereo unspecified) ... inactive
11. CCCC[N+]1(C)C2CC(OC(=O)[C@H](CO)c3ccccc3)CC1C1OC12 (stereo partly specified) ... inactive

* * *

Assay: Nrf2 qHTS screen for inhibitors: Validation (AID 493153)
Settings: A549 ARE-Fluc reporter, 18-24 h; measured here: cytotoxicity max response
Inconclusive results are not listed.
# reported viability change; entries follow
quantity: viability change (%)

1) Cc1o[nH]c(=O)c1CC(N)C(=O)O (stereo not drawn) ... 2.81
2) C[C@H](N)CN1CCc2ccc(Br)cc21 ... -2.43
3) CN(N=O)c1ccc(O)c(O)c1 ... 0.531
4) C[N+]1(C)CCN(c2ccccc2)CC1 ... -2.09
5) CN1CCc2cccc(Cl)c2CC1 ... 2.9
6) NNC(=O)c1ccc(O)cc1 ... 6.63
7) CCCN(CCC)[C@H]1CCc2c(F)ccc(O)c2C1 ... -8.48
8) NCCc1ccc(S(=O)(=O)F)cc1 ... -2.23
9) COc1ccc2c(c1O)-c1cccc3c1[C@@H](C2)N(C)CC3 ... -4.97
10) CN(C(=O)Cc1ccc(Cl)c(Cl)c1)C(CN1CCCC1)c1cccc(OCC(=O)O)c1 (stereo not drawn) ... -6.12
11) Nc1ccc(CCN2CCN(c3cccc(C(F)(F)F)c3)CC2)cc1 ... 0.0372
12) OCc1cnc[nH]1 ... 1.78
13) CCOC(=O)c1ncn2c1[C@@H]1CCCN1C(=O)c1cc(OC)ccc1-2 ... -9.51

* * *

# reported max response; entries follow
System: KB-3-1
Assay: Cytotoxic Profiling of Annotated Libraries Using Quantitative High-Throughput Screening (AID 1296008); further: on the % scale 0 is the no-effect control and ±100 the full control effect; nearly all actives have a fitted effect of over 60% in size
Settings: Five cell lines viability, CellTiter-Glo ATP luminescence, 48-72 h; stronger effect = lower value
Results filed as inconclusive are left out.
quantity: max response (%)

1) N#CC(OC1OC(COC2OC(CO)C(O)C(O)C2O)C(O)C(O)C1O)c1ccccc1 (stereo not given) ... 9.88
2) CCNC(C)Cc1cccc(C(F)(F)F)c1 (stereo not given) ... 20.4
3) CC[N+](C)(CC)CCOC(=O)C(O)(c1ccccc1)c1ccccc1 ... -0.181
4) ClC(Cl)(Cl)Cl ... -1.06
5) COC(=O)[C@@]12C(=O)C(C)C(=O)[C@]1(C)C(C)=C[C@H]1[C@]3(C=O)CC[C@H](OC(C)=O)C(C)(C)[C@H]3CC[C@@]12C (stereo not given in full) ... 6.62

* * *

Tested on: CP237
Assay: qHTS profiling for inhibitors of Plasmodium falciparum proliferation (AID 504749); further: nearly all actives have a fitted effect of over 60% in size
Settings: P. falciparum in erythrocytes, SYBR Green DNA, 72 h; series mostly up to 28.7 µM
Records with an inconclusive call do not appear. Activity calls are given as the source filed them. Calls come from the whole dose curve; as a rule, active = well fitted inhibition curve with a large enough effect; inconclusive = small, poorly fitted or top-dose-only effect; inactive = flat fitted curve, though single readings scatter.
Labels: active, inactive

1. Oc1cccc[c]1[Hg][Cl] ... active
2. CNC(C)C(O)c1ccc(O)cc1 (stereo not drawn) ... inactive
3. O=[N+]([O-])c1ccc(F)c([N+](=O)[O-])c1 ... inactive
4. C#CC(C)(O)CC (stereo not drawn) ... inactive
5. O=[N+]([O-])C(Br)(CO)CO ... inactive
6. C=CCN1CC[C@]23c4c5ccc(O)c4O[C@H]2[C@@H](O)C=C[C@H]3[C@H]1C5 ... inactive
7. CCCCCl ... inactive
8. S=C=S ... inactive
9. N#CC(C#N)=Cc1cc(O)c(O)c(O)c1 ... active
10. C=CCC1(C(C)CCC)C(=O)N=C(S)NC1=O (stereo not drawn) ... inactive
11. O[C@H]1[C@H]2[C@H](O)CCCN2C[C@H]1O ... inactive
12. O=[N+]([O-])c1cc(I)c(O)c(I)c1 ... inactive
13. CC(C)CCON=O ... inactive
14. O=C(NC(=O)c1c(F)cccc1F)Nc1ccc(Cl)c(Oc2ncc(C(F)(F)F)cc2Cl)c1 ... inactive
15. O=c1[nH]c(=O)n(Cl)c(=O)n1Cl ... inactive
16. COc1ccc2c3c1O[C@H]1C(=O)CC[C@H]4[C@@H](C2)N(C)CC[C@]314 ... inactive
17. O=P(O)(O)C(Cl)(Cl)P(=O)(O)O ... inactive
18. C=CCN(C1=NCCN1)c1c(Cl)cccc1Cl ... inactive
19. F/C(COc1ccc2c(c1)[nH]c1ccccc12)=C1/CN2CCC1CC2 ... active
20. CCCC(C)(COC(N)=O)COC(=O)NC1CC1 (stereo not drawn) ... inactive
21. C=CCN1CCC23c4c5ccc(O)c4O[C@H]2C(=O)CC[C@@]3(O)C1C5 (stereo partly drawn) ... inactive
22. O=C(OCCN1CCCCC1)C(O)(c1ccccc1)c1ccccc1 ... inactive
23. CC(N)Cc1ccc(O)cc1 (stereo not drawn) ... inactive
24. CCC1(c2ccccc2)C(=O)NC(=O)N(C(=O)c2ccccc2)C1=O (stereo not drawn) ... inactive
25. CCC(=O)O[C@@](Cc1ccccc1)(c1ccccc1)[C@@H](C)CN(C)C ... inactive
26. CNC(=O)OCC[N+](C)(C)C ... inactive
27. CCC1(C)CC(=O)NC(=O)C1 ... inactive
28. O=S(=O)(O)c1cc(O)ccc1O ... inactive

* * *

Target: DNA polymerase III PolC-type (Bacillus subtilis (strain 168)) (UniProt P13267)
Sequence (P13267 whole entry, looked up): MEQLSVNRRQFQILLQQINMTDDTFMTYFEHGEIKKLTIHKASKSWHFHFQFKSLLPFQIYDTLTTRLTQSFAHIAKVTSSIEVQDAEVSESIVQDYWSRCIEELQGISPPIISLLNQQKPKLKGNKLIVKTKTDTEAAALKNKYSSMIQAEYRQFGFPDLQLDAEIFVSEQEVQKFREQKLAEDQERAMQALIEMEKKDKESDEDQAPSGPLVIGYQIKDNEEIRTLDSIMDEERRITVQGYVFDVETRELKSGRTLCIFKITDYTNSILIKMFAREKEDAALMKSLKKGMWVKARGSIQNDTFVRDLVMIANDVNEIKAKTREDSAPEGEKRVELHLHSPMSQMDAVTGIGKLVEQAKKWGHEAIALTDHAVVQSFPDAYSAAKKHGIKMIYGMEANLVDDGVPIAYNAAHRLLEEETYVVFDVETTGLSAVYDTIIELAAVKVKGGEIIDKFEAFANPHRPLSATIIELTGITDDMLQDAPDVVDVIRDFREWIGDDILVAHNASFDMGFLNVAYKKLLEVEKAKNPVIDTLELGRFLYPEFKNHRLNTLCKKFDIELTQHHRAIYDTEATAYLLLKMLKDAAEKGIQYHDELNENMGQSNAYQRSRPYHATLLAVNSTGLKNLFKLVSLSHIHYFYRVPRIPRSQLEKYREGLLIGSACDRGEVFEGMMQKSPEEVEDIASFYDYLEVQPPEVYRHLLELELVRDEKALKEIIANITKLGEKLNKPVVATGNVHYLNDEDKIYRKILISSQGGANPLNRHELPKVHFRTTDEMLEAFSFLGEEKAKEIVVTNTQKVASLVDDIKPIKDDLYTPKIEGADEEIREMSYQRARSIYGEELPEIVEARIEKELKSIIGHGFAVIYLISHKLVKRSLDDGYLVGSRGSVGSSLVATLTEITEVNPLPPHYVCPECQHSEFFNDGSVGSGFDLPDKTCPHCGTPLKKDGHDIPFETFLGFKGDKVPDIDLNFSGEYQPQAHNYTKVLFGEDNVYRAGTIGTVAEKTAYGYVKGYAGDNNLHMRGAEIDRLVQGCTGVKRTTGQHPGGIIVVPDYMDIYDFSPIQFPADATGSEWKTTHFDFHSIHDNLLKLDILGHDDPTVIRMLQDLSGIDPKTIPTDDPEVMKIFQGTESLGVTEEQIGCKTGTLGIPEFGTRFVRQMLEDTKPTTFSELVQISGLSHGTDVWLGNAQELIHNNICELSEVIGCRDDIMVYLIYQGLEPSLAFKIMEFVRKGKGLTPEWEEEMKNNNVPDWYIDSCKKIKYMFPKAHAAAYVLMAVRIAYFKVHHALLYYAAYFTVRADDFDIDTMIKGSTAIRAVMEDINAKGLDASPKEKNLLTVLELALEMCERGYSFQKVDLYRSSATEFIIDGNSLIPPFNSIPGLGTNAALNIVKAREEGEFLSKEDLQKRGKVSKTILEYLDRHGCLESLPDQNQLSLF
Assay: qHTS Validation Assay for the Inhibitors of DNA Replication in Gram-Positive Bacteria (AID 485295)
Settings: Gram-positive bacterial DNA replication assay; series mostly up to 57.1 µM
Activity calls are given as the source filed them. The call rests on the fitted dose curve; in most records, active means well fitted inhibition curve with a large enough effect; inconclusive means small, poorly fitted or top-dose-only effect; inactive means flat fitted curve, though single readings scatter.
Labels: active, inactive

1) CCCN(CCC)C1CCc2cccc(O)c2C1 (configuration not stated) ... inactive
2) O=C(O)c1cc[c]([Hg][Cl])cc1 ... active
3) Cc1o[nH]c(=O)c1CC(N)C(=O)O (configuration not stated) ... inactive
4) C[C@@H]1O[C@H](C[N+](C)(C)C)CS1 ... inactive
5) C[N+]1(C)CCN(c2ccccc2)CC1 ... inactive
6) O=[N+]([O-])c1cc(O)c(O)c([N+](=O)[O-])c1 ... inactive
7) CC(C)(C)c1o[nH]c(=O)c1CC(N)C(=O)O (configuration not stated) ... inactive
8) Ic1ccccc1CNC1C2CCN(CC2)C1C(c1ccccc1)c1ccccc1 (configuration not stated) ... inactive
9) C[C@H](Cc1ccc2c(c1)OC(C(=O)O)(C(=O)O)O2)NC[C@H](O)c1cccc(Cl)c1 ... inactive
10) O=C1C=CC(=O)C=C1 ... inactive
11) N[C@@H](Cn1ccc(=O)[nH]c1=O)C(=O)O ... inactive
12) C[N+]1(C)CCc2cc3c(cc2[C@H]1[C@@H]1OC(=O)c2c1ccc1c2OCO1)OCO3 ... inactive

* * *

Assay: P-glycoprotein substrates identified in KB-8-5-11 adenocarcinoma cell line, qHTS therapeutic library screen (AID 1346987); further: nearly all actives have a fitted effect of over 65% in size; further: potency means the concentration at half of the fitted maximal effect
Details: KB-8-5-11 (P-gp overexpressing) viability, CellTiter-Glo, 72 h; series mostly up to 44.5 µM
Results filed as inconclusive are left out. The source made the active and inactive calls. The call rests on the fitted dose curve; in most records, active means well fitted inhibition curve with a large enough effect; inconclusive means small, poorly fitted or top-dose-only effect; inactive means flat fitted curve, though single readings scatter.
quantity: Potency

1. CC(=O)O[C@H]1C[C@H](O[C@H]2[C@@H](O)C[C@H](O[C@H]3[C@@H](O)C[C@H](OC4CC[C@@]5(C)[C@H](CC[C@@H]6[C@@H]5CC[C@]5(C)[C@@H](C7=CC(=O)OC7)CC[C@]65O)C4)O[C@@H]3C)O[C@@H]2C)O[C@H](C)[C@H]1O[C@@H]1O[C@H](CO)[C@@H](O)[C@H](O)[C@H]1O (stereo not given in full) ... 259 nM (active)
2. COC1CC(OC2CCC3(C)C(CCC4C3CCC3(C)C(C5=CC(=O)OC5)C(OC(C)=O)CC43O)C2)OC(C)C1OC1OC(CO)C(O)C(O)C1O (stereo not given) ... 685 nM (active)
3. C/C=C(\C)C(=O)OC1CC2C(C)(C)OC(=O)CC(OC(C)=O)C2(C)C2CC(OC(=O)C(C)C)C3(C)C(c4ccoc4)CC4OC43C12C (stereo not given) ... inactive
4. CC[C@H]1[C@@H]2C[C@H]3[C@@H]4N(C)c5ccccc5[C@]45C[C@@H](C2[C@H]5O)N3[C@@H]1O (stereo not given in full) ... inactive
5. COc1c(C(C)C)cc2c(c1O)[C@@]1(C(=O)O)CCCC(C)(C)C1CC2 (stereo not given in full) ... inactive
6. COC1CC(O[C@H]2CC[C@]3(C=O)C4CC[C@]5(C)[C@@H](C6=CC(=O)OC6)CC[C@]5(O)[C@@H]4CC[C@]3(O)C2)OC(C)C1O[C@@H]1O[C@H](CO)[C@@H](O)[C@H](O)[C@H]1O (stereo not given in full) ... 153 nM (active)
7. CC(=O)O[C@H]1C[C@@H](OC(C)=O)C(C)(C)C2C[C@@H](O)[C@]3(C)C(CC[C@@]4(C)[C@H](C5=CC(=O)OC5O)C[C@H]5O[C@]543)[C@]21C (stereo not given in full) ... inactive
8. C[C@]12CCC(=O)C=C1C=C[C@@H]1[C@@H]2CC[C@@]2(C)[C@H]1CC[C@@]2(O)CCC(=O)O ... inactive
9. OC1(c2ccc(Cl)cc2)c2ccccc2C2=NCCN21 (stereo not given) ... inactive
10. Clc1ccc(N2C[C@H]3CC[C@@H](C2)N3)nn1 ... inactive
11. ClC(Cl)(Cl)Cl ... inactive
12. CC(C)(O)[C@@H]1[C@H]2OC(=O)[C@@H]1[C@]1(O)C[C@H]3O[C@]34C(=O)O[C@H]2[C@]14C ... inactive
13. C[C@]12CC[C@@H](O)C[C@H]1CC[C@@H]1[C@@H]2CC[C@]2(C)C(=O)CC[C@@H]12 ... inactive
14. C=CC(C)(C)c1[nH]c2cccc3c2c1C[C@@H]1[C@@H]3[C@@H](OC(C)=O)[C@H](C)CN1C ... inactive
15. O=Cc1ccco1 ... inactive
